biological target: recombinant human NK3 receptor (Homo sapiens); construct: membranes; experiment: [3H]SR142801 competition binding assay; details: membranes from HEK293 cells transiently expressing recombinant human NK3 receptor; [3H]SR142801 radioligand; Ki by Cheng-Prussoff
Sequence (P29371 whole entry): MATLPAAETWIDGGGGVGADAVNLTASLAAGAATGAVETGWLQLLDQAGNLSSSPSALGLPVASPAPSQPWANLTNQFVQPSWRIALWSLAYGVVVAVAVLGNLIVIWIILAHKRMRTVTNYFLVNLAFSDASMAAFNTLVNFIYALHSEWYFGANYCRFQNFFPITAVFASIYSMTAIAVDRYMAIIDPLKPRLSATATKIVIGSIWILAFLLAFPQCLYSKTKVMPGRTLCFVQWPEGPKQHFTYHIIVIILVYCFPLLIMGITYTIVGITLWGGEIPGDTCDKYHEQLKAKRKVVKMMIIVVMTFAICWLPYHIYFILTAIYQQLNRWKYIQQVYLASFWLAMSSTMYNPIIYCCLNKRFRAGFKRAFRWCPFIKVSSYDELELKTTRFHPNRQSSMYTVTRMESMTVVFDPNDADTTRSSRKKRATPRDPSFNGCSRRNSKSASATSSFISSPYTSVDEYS
pKi: −log10 of the molar value.
measured_property: pKi

[[record]]
compound = "C[C@@H](Oc1ccc(C(F)(F)F)cc1)[C@@H]1CN(C(=O)CN2CCC(N(C)S(C)(=O)=O)CC2)C[C@H]1c1ccc(Cl)c(Cl)c1 (racemic)"
endpoint_value = 7.23


A. C[C@H](Oc1ccc(C(F)(F)F)cc1)[C@@H]1CN(C(=O)N2CCN(S(C)(=O)=O)CC2)C[C@H]1c1ccc(Cl)c(Cl)c1 (racemic)
B. C[C@H](Oc1ccc(C#N)cn1)[C@H]1CN(C(=O)CN2CCC(C#N)CC2)C[C@@H]1c1ccc(Cl)c(Cl)c1 (racemic)
Lowest pKi? choose A or B Returns: label corresponding to the selected item.
B
(B: 7.07, A: 7.33)

Numbers sourced from patent US7812021B2.
